Reference source for all entries: PubChem BioAssay (NCI)

Test system: HT29 colon
Assay: NCI-60 one-dose screen, 48 h (100 = growth as untreated, 0 = no growth, -100 = all killed)
Settings: 10 µM unless noted
Compounds without any hit were thinned out: in the full panel of roughly 83,000, 20% have a hit. Active and inactive are the calls of the source. How the source made its calls: active means growth percent below 10; inactive means the rest.

compound	measuredTarget	growth
Cc1ccc(Cc2cnc(NC(=O)c3ccc4noc(-c5ccccc5)c4c3)s2)cc1	HT29 colon	65.3% (inactive)
O=C1/C(=C\c2cccnc2)SC(=S)N1CCc1ccc(O)cc1	HT29 colon	105% (inactive)
CN1CCN(CC(=O)Nc2nc(-c3cccc(NS(=O)(=O)c4cccc5c(N(C)C)cccc45)c3)cs2)CC1	HT29 colon	35.2% (inactive)
CNc1ccc(NC)c2c1C(=O)c1ccccc1C2=O	HT29 colon	98.7% (inactive)
CCN(CC)CCCCCCNc1cc(OC)c(Cl)c2cccnc12	HT29 colon	16.2% (inactive)
COc1ccc(CNC(=O)C(O)C(Cc2ccccc2)NC(=O)c2[nH]c3ccccc3c(=O)c2C)cc1OC (configuration not stated)	HT29 colon	100% (inactive)
CCCCCCCC/C=C\CCCCCCCCOc1ccccc1CC(=O)NCC[N+](C)(C)C	HT29 colon	33.4% (inactive)
Cc1ccc(NS(=O)(=O)c2ccc3c(c2)C(=O)CC(c2ccc(C(=O)C(C)C)cc2)N3)cc1C (configuration not stated)	HT29 colon	91.3% (inactive)
O=C(N=c1oc2ccccc2cc1-c1cc2ccccc2[nH]1)c1ccc(Cl)cc1	HT29 colon	65.7% (inactive)
CCCCCCCCCCCC(c1ccccc1)[N+](C)(C)C (configuration not stated)	HT29 colon	3.96% (active)
COc1ccc2c(c1)[nH]c(=O)c1c3cccnc3cn21	HT29 colon	8.6% (active)
COC(=O)c1c2c(c(C)[n+]([O-])c1C)C(=O)C(NCc1ccc(F)c(Cl)c1)=CC2=O	HT29 colon	5% (active)
CC(C)C(NC(=O)C1(NC(=O)OCc2ccccc2)CCCC1)C(=O)O (configuration not stated)	HT29 colon	105% (inactive)
Cc1cc(Cl)ccc1Nc1nc(C(F)(F)F)ccc1C(=O)N/N=C/c1ccc(N(C)C)cc1	HT29 colon	32.5% (inactive)
Cc1nn(-c2ccccc2)c(Cl)c1/C=C(/NC(=O)c1ccccc1)c1nc2ccccc2[nH]1	HT29 colon	75.3% (inactive)
N#C/C(=C/C=C/c1cccc(Cl)c1)S(=O)c1ccccc1 (configuration not stated)	HT29 colon	-35.9% (active)
CC1O[C@@H](OC2[C@H](OC(=O)/C=C/c3ccc(O)c(O)c3)C(COC3O[C@H](C)C(O)C(O)[C@@H]3O)O[C@@H](OCCc3ccc(O)c(O)c3)[C@H]2O)[C@@H](O)C(O)[C@H]1O (some centres not stated)	HT29 colon	100% (inactive)
COc1cc2c(cc1-c1c(C)noc1C)ncc1nc(C3CCC(F)(F)CC3)n(C3CCC(OC(F)F)CC3)c12 (configuration not stated)	HT29 colon	31.6% (inactive)
COc1ccc2[nH]c(O)c(C(=Nc3ccc(N(C)C(=O)CN4CCN(C)CC4)cc3)c3ccccc3)c2c1	HT29 colon	18% (inactive)
COc1ccc(Cl)cc1NC(=O)C(Br)C(Br)C(=O)O (configuration not stated)	HT29 colon	108% (inactive)
COC1=C(OC)C(=O)C(OC)=C(OC)C1=O	HT29 colon	104% (inactive)
O=C1CCC2=C3C4CCCCC4C(=O)C4CCCC(OC2C1)C34 (configuration not stated)	HT29 colon	85.6% (inactive)
CCOc1ccccc1-c1cc(-c2cccs2)c(C#N)c(=O)[nH]1	HT29 colon	120% (inactive)
Cc1ccc2nc(NC(=O)CSc3nc(-c4ccccc4)c(C#N)c(=O)n3Cc3ccccc3)sc2c1	HT29 colon	105% (inactive)
COc1cc(/C=C/C(=O)c2cccc(-n3cc(-c4ccccc4)[nH]c3=O)c2)ccc1O	HT29 colon	44.5% (inactive)
CCOC(=O)c1ccc(N2NC(=O)/C(=C/c3ccc([N+](=O)[O-])o3)C2=O)cc1	HT29 colon	114% (inactive)
CC(=O)OC1CCC2(C)C(=CC3C4CCC(=O)C4(C)CCC32)C1 (configuration not stated)	HT29 colon	99.7% (inactive)
C[C@]12CC[C@@H]3c4cc(OC(F)F)c(O)cc4CC[C@H]3[C@@H]1CC[C@@H]2OS(N)(=O)=O	HT29 colon	19.5% (inactive)
CC(CCc1ccc(Cl)c(Cl)c1)NCc1ccc(C(C)(C)C)cc1 (configuration not stated)	HT29 colon	39.6% (inactive)
COc1cccc2c1C(=O)c1c(O)c3c(c(O)c1C2=O)CC(O)(/C(C)=N/NC(=O)CCCCC(=O)N/N=C(\C)C1(O)Cc2c(O)c4c(c(O)c2C(OC2CC(N)C(O)C(C)O2)C1)C(=O)c1c(OC)cccc1C4=O)CC3OC1CC(N)C(O)C(C)O1 (configuration not stated)	HT29 colon	-68.9% [5 µM] (active)
CC/C=C/C/C=C/C/C=C/C/C=C/C/C=C/C/C=C/CCC(=O)Nc1ccn([C@@H]2O[C@H](CO)[C@@H](O)C2(F)F)c(=O)n1	HT29 colon	36.4% (inactive)
COc1cc(C2CC(=O)Nc3c2c(C)nn3-c2nc3ccccc3[nH]2)cc2c1OCC(=O)N2 (configuration not stated)	HT29 colon	66.9% (inactive)
COc1ccc(N=C(c2ccccc2)C2C(=O)c3ccccc3C2=O)cc1	HT29 colon	79.5% (inactive)
CCOC(=O)c1c2c(n3ccc(NC(=O)OC(C)(C)C)cc13)C(=O)c1ncccc1C2=O	HT29 colon	-50.9% (active)
Fc1ccc(CNc2c3ccccc3nc3ccccc23)cc1F	HT29 colon	13.4% (inactive)
c1csc(-c2c3ccc(=[N+]4CCCCC4)cc-3oc3cc(N4CCCCC4)ccc23)c1	HT29 colon	-74.2% (active)
COc1cc(C(=O)/C=C/c2c(C(F)(F)F)nc3sccn23)cc(OC)c1OC	HT29 colon	-11.8% (active)
